- testedTarget: ferroportin (Homo sapiens)
- measurementDescription: T47D cell-based ferroportin internalization assay in presence of mouse serum albumin (MSA)
- Parameters: a human breast carcinoma adherent cell line which endogenously expresses ferroportin; host or cells: T47D
- testSettings: T47D internalization assay in presence of mouse serum albumin (MSA); Table 6E
pIC50: −log10 of the molar value. Positions of bridges follow the written chain, without caps; N, C: chain ends. Non-standard residues stand in square brackets, D forms with d. Residues, ends and D or L forms follow the SMILES beside them. Groups on a side chain read outwards from the residue. *: point of attachment. X1 = C[N+](C)(CCNC(=O)CCCCCCCCCCCCCCCCC(=O)O)CC(=O)*; Dip = N[C@H](C(=O)O)C(c1ccccc1)c1ccccc1; β3hF = N[C@H](CC(=O)O)Cc1ccccc1; NMeK = CN[C@@H](CCCCN)C(=O)O; Isovaleryl = CC(C)CC(=O)*; AEEA = NCCOCCOCC(=O)O
measuredProperty: pIC50

INSERT INTO results (compound, measuredresult) VALUES
  ('COC(=O)CC[C@H](NC(=O)CC(C)C)C(=O)N[C@H](C(=O)N[C@@H](Cc1c[nH]cn1)C(=O)N[C@H](C(=O)N1CCC[C@H]1C(=O)N[C@H]1CSSC[C@@H](C(=O)N(C)[C@@H](CCCCNC(=O)COCCOCCNC(=O)COCCOCCNC(=O)C[N+](C)(C)CCNC(=O)CCCCCCCCCCCCCCCCC(=O)O)C(=O)N[C@H](CC(=O)N[C@H](CCCCN)C(N)=O)Cc2ccccc2)NC1=O)C(c1ccccc1)c1ccccc1)[C@@H](C)O [compound 231] (Isovaleryl-E(OMe)TH[Dip]PCC[NMeK]([AEEA-AEEA-X1])[β3hF][dK]-NH2; disulfide 6-7)', '7.00 to 8.00'),
  ('COC(=O)CC[C@H](NC(=O)CC(C)C)C(=O)N[C@H](C(=O)N[C@@H](Cc1c[nH]cn1)C(=O)N[C@H](C(=O)N1CCC[C@H]1C(=O)N[C@H]1CSSC[C@@H](C(=O)N(C)[C@@H](CCCCNC(=O)COCCOCCNC(=O)COCCOCCNC(=O)C[N+](C)(C)CCNC(=O)CCCCCCCCCCCCCCCCC(=O)O)C(=O)N[C@H](C(=O)N[C@H](CCCCN)C(N)=O)C(c2ccccc2)c2ccccc2)NC1=O)C(c1ccccc1)c1ccccc1)[C@@H](C)O [compound 230] (Isovaleryl-E(OMe)TH[Dip]PCC[NMeK]([AEEA-AEEA-X1])[Dip][dK]-NH2; disulfide 6-7)', '7.00 to 8.00');

----------
- testedTarget: ferroportin (Homo sapiens, UniProt Q9NP59)
- Sequence (Q9NP59 1-571): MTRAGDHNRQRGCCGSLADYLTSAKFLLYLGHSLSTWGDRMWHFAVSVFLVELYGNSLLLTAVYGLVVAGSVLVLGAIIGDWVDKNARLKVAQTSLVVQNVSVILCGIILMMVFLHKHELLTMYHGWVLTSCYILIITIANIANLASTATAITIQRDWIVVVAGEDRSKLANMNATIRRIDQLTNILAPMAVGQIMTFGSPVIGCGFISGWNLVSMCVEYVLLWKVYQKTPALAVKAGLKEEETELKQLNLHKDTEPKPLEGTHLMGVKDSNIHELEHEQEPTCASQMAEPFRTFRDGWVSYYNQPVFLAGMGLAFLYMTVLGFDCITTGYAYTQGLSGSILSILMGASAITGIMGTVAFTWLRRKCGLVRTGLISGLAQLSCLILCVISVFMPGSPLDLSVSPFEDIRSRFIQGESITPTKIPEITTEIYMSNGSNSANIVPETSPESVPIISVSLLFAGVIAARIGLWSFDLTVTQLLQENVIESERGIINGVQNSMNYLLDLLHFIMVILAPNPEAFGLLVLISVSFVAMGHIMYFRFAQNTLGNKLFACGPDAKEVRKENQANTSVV
- measurementDescription: T47D cell-based ferroportin internalization assay in presence of mouse serum albumin (MSA)
- Set-up: a human breast carcinoma adherent cell line which endogenously expresses ferroportin; host or cells: T47D
- testSettings: T47D internalization assay in presence of mouse serum albumin (MSA); Table 6E
Positions of bridges follow the written chain, without caps; N, C: chain ends. Non-standard residues stand in square brackets, D forms with d. Residues, ends and D or L forms follow the SMILES beside them. Groups on a side chain read outwards from the residue. *: point of attachment. X1 = C[N+](C)(CCNC(=O)CCCCCCCCCCCCCCCCC(=O)O)CC(=O)*; C18 diacid = O=C(O)CCCCCCCCCCCCCCCCC(=O)*; Dip = N[C@H](C(=O)O)C(c1ccccc1)c1ccccc1; Palmitoyl = CCCCCCCCCCCCCCCC(=O)*; β3hF = N[C@H](CC(=O)O)Cc1ccccc1; NMeK = CN[C@@H](CCCCN)C(=O)O; αMeK = C[C@](N)(CCCCN)C(=O)O; Isovaleryl = CC(C)CC(=O)*; hCys = N[C@@H](CCS)C(=O)O; Dap = NC[C@H](N)C(=O)O; AEEA = NCCOCCOCC(=O)O; Inp = O=C(O)C1CCNCC1; Ahx = NCCCCCC(=O)O
measuredProperty: IC50

INSERT INTO results (compound, measuredproperty, measuredresult) VALUES
  ('CC(C)CC(=O)N[C@@H](CCC(=O)O)C(=O)N[C@H](C(=O)N[C@@H](Cc1c[nH]cn1)C(=O)N[C@H](C(=O)N1CCC[C@H]1C(=O)N[C@H]1CCSSCC[C@@H](C(=O)N[C@@H](CCCCNC(=O)COCCOCCNC(=O)COCCOCCNC(=O)[C@H](CN)NC(=O)CCCCCCCCCCCCCCCCC(=O)O)C(=O)N[C@H](CC(=O)N[C@H](CCCCN)C(N)=O)Cc2ccccc2)NC1=O)C(c1ccccc1)c1ccccc1)[C@@H](C)O [compound 268] (Isovaleryl-ETH[Dip]P[hCys][hCys]K([AEEA-AEEA-Dap-C18 diacid])[β3hF][dK]-NH2; disulfide 6-7)', 'IC50', '10 to 100 nM'),
  ('CC(C)CC(=O)N[C@@H](CCC(=O)O)C(=O)N[C@H](C(=O)N[C@@H](Cc1cnc[nH]1)C(=O)N[C@H](C(=O)N1CCC[C@H]1C(=O)N[C@H]1CSSC[C@@H](C(=O)N(C)[C@@H](CCCCNC(=O)COCCOCCNC(=O)COCCOCCNC(=O)[C@H](CN)NC(=O)CCCCCCCCCCCCCCCCC(=O)O)C(=O)N[C@H](CC(=O)N(C)[C@@H](CCCCN)C(N)=O)Cc2ccccc2)NC1=O)C(c1ccccc1)c1ccccc1)[C@@H](C)O [compound 292] (Isovaleryl-ETH[Dip]PCC[NMeK]([AEEA-AEEA-Dap-C18 diacid])[β3hF][NMeK]-NH2; disulfide 6-7)', 'IC50', '1 to 10 nM'),
  ('COC(=O)CC[C@H](NC(=O)CC(C)C)C(=O)N[C@H](C(=O)N[C@@H](Cc1c[nH]cn1)C(=O)N[C@H](C(=O)N1CCC[C@H]1C(=O)N[C@H]1CSSC[C@@H](C(=O)N[C@@H](CCCCNC(=O)CCCCCNC(=O)C[N+](C)(C)CCNC(=O)CCCCCCCCCCCCCCCCC(=O)O)C(=O)N[C@H](CC(=O)N[C@H](CCCCN)C(N)=O)Cc2ccccc2)NC1=O)C(c1ccccc1)c1ccccc1)[C@@H](C)O [compound 315] (Isovaleryl-E(OMe)TH[Dip]PCCK([Ahx-X1])[β3hF][dK]-NH2; disulfide 6-7)', 'IC50', '10 to 100 nM'),
  ('CC(C)CC(=O)N[C@@H](CCC(=O)O)C(=O)N[C@H](C(=O)N[C@@H](Cc1c[nH]cn1)C(=O)N[C@H](C(=O)N1CCC[C@H]1C(=O)N[C@H]1CSSC[C@@H](C(=O)N(C)[C@@H](CCCCNC(=O)COCCOCCNC(=O)COCCOCCNC(=O)[C@H](CN)NC(=O)CCCCCCCCCCCCCCCCC(=O)O)C(N)=O)NC1=O)C(c1ccccc1)c1ccccc1)[C@@H](C)O [compound 294] (Isovaleryl-ETH[Dip]PCC[NMeK]([AEEA-AEEA-Dap-C18 diacid])-NH2; disulfide 6-7)', 'IC50', '10 to 100 nM'),
  ('CC(C)CC(=O)N[C@@H](CCC(=O)O)C(=O)N[C@H](C(=O)N[C@@H](Cc1c[nH]cn1)C(=O)N[C@H](C(=O)N1CCC[C@H]1C(=O)N[C@H]1CSSC[C@@H](C(=O)N[C@@](C)(CCCCNC(=O)COCCOCCNC(=O)COCCOCCNC(=O)[C@H](CN)NC(=O)CCCCCCCCCCCCCCCCC(=O)O)C(=O)N[C@H](CC(=O)N[C@H](CCCCN)C(N)=O)Cc2ccccc2)NC1=O)C(c1ccccc1)c1ccccc1)[C@@H](C)O [compound 302] (Isovaleryl-ETH[Dip]PCC[αMeK]([AEEA-AEEA-Dap-C18 diacid])[β3hF][dK]-NH2; disulfide 6-7)', 'IC50', '10 to 100 nM'),
  ('CCCCCCCCCCCCCCCC(=O)NCCCCCC(=O)NCCCC[C@@H](C(=O)N[C@H](CC(=O)N[C@H](CCCCN)C(N)=O)Cc1ccccc1)N(C)C(=O)[C@@H]1CSSC[C@H](NC(=O)[C@@H]2CCCN2C(=O)[C@@H](NC(=O)[C@H](Cc2cnc[nH]2)NC(=O)[C@@H](NC(=O)[C@H](CCC(=O)O)NC(=O)CC(C)C)[C@@H](C)O)C(c2ccccc2)c2ccccc2)C(=O)N1 [compound 308] (Isovaleryl-ETH[Dip]PCC[NMeK]([Ahx-Palmitoyl])[β3hF][dK]-NH2; disulfide 6-7)', 'IC50', '1 to 10 nM'),
  ('CC(C)CC(=O)N[C@@H](CCC(=O)O)C(=O)N[C@H](C(=O)N[C@@H](Cc1c[nH]cn1)C(=O)N[C@H](C(=O)N1CCC[C@H]1C(=O)N[C@H]1CSSC[C@@H](C(=O)N(C)[C@@H](CCCCNC(=O)COCCOCCNC(=O)COCCOCCNC(=O)[C@H](CN)NC(=O)CCCCCCCCCCCCCCCCC(=O)O)C(=O)N[C@H](CC(=O)N[C@H](CCCCN)C(N)=O)Cc2ccccc2)NC1=O)C(c1ccccc1)c1ccccc1)[C@@H](C)O [compound 306] (Isovaleryl-ETH[Dip]PCC[NMeK]([AEEA-AEEA-Dap-C18 diacid])[β3hF][dK]-NH2; disulfide 6-7)', 'IC50', '10 to 100 nM'),
  ('C[C@@H](O)[C@H](NC(=O)[C@H](CCC(=O)O)NC(=O)C1CCNCC1)C(=O)N[C@@H](Cc1c[nH]cn1)C(=O)N[C@H](C(=O)N1CCC[C@H]1C(=O)N[C@H]1CSSC[C@@H](C(=O)N(C)[C@@H](CCCCNC(=O)COCCOCCNC(=O)COCCOCCNC(=O)[C@H](CN)NC(=O)CCCCCCCCCCCCCCCCC(=O)O)C(=O)N[C@H](CC(=O)N[C@H](CCCCN)C(N)=O)Cc2ccccc2)NC1=O)C(c1ccccc1)c1ccccc1 [compound 300] (H-[Inp]ETH[Dip]PCC[NMeK]([AEEA-AEEA-Dap-C18 diacid])[β3hF][dK]-NH2; disulfide 7-8)', 'IC50', '100 to 500 nM');
